Origin of measurements: patent US20130287781A1

biological target: T1, GST-human NOGO-A56 (human); test: SPR (Biacore), GST-human NOGO-A56 amine-coupled to CM5, antibody flowed over, 25 C
T1 construct: Expressed in E. coli BL21 from pGEX-6P1 and purified on glutathione-sepharose; the GST tag is part of the protein in the assays; also called GST-Nogo-A 5+6; GST Nogo-A 5 + 6
T1 sequence (chain, as listed by the source limits assumed): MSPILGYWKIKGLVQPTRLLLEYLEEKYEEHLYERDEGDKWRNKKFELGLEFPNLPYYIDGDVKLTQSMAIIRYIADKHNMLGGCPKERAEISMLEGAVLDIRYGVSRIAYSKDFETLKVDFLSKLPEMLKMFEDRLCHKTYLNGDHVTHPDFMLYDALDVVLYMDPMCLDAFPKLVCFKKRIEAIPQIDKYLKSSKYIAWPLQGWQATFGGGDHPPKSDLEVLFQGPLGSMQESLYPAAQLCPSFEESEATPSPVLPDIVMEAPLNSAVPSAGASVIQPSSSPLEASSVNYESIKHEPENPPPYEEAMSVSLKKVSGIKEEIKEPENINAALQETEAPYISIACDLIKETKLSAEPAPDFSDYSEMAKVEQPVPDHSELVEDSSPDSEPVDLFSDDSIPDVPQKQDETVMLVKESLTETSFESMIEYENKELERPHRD
Value Type: pKd
Answer as the number alone; pKd is minus log10 of concentration in mol/L.

>  <Binder>
HcLc (chimera of 2A10: murine 2A10 VH and VL with human IgG constant regions) (antibody, V domains shown, also called chimeric antibody; chimeric form of the parental antibody) VH: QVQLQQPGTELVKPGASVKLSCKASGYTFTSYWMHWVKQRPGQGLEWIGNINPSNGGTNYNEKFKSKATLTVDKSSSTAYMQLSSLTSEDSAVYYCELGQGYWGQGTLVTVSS VL: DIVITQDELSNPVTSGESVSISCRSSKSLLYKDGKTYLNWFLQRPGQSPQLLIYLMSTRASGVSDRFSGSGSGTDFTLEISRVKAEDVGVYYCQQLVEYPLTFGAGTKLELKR

>  <Measurement>
8.93

$$$$
>  <Binder>
H16L16 (antibody, human IgG1, kappa, V domains shown, IgG1 (L235A, G237A) / kappa; CAMPATH-1H signal (1-19) left out) VH: QVQLVQSGAEVKKPGASVKVSCKASGYTFTSYWMHWVKQRPGQGLEWIGNINPSNGGTNYNEKFKSKATLTVDKSTSTAYMELSSLRSEDTAVYYCELGQGYWGQGTLVTVSS VL: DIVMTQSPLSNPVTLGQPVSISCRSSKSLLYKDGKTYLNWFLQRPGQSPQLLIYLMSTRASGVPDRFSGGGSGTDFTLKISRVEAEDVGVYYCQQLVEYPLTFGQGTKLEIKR

>  <Measurement>
8.97

$$$$
>  <Binder>
H27L16 (antibody, human IgG1, kappa, V domains shown, IgG1 (L235A, G237A) / kappa; CAMPATH-1H signal (1-19) left out; also called H27FL L16FL) VH: QVQLVQSGAEVKKPGASVKVSCKASGYTFTSYWMHWVKQRPGQGLEWIGNINPSNGGTNYNEKFKSKATLTVDKSTSTAYMELSSLRSEDTAVYYCELMQGYWGQGTLVTVSS VL: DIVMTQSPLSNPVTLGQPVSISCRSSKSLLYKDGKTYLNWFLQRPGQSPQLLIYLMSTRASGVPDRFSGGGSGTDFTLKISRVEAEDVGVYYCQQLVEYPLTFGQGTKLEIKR

>  <Measurement>
9.42

$$$$

The record that follows has no pKd shown yet.
Data point: H27L13 (antibody, human IgG1, kappa, V domains shown, IgG1 (L235A, G237A) / kappa; CAMPATH-1H signal (1-19) left out) VH: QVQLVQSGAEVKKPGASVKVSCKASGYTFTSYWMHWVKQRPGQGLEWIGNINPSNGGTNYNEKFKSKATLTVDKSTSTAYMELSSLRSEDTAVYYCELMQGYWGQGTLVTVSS VL: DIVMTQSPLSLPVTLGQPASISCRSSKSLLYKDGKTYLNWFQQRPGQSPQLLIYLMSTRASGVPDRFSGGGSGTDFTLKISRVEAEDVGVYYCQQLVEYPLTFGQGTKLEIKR ; pKd = 9.22
